The entries below come with measured apparent KD of MS2 coat protein values attached.
System: MS2 coat protein
test: apparent KD of MS2 coat protein; higher = weaker reporter binding
cond: Eterna round: R107; input ligand: tryptophan 2.4 mM
Give the value, in units of nM, as a plain number.

Here is how some sequences turned out for apparent KD of MS2 coat protein.
- GACAUUAUCUGAAGGAGCGAGGUAAAUAGGGAUGAGCAUACAUGAGGAUCACCCAUGUGGCCUCAGGUAGGUCGCAGAUGAGAUU [Exclusion Arginine B GF26]: 256
- UGAUGGUUCGGAAGGAGCGUGUAAGAACAAGAACAUGAGGAUCACCCAUGUAUUAAUUUAACACAGGUAGGUCGCCGGGUUAUUG [11.J]: 14.4
- ACCUACACGGAAACGUGUAGAAGUAAUGAUACCAGCAUGGAAACAUGCCCUUGGCAGCGUUACAUGAGGAUCACCCAUGUAUGUU [#01 Exclusion-TheophyllineA]: 15.4
- CAGAGACAUGAGGAUCACCCAUGUUGAGAUACCAGCUUGGUAUCGAGCCCUUGGCAGCUCGCCCAUCGUCUAUAUCAGCCUGAGC [theeternabot_sameState_MS2_Theo_A_40]: 16.8
- UGUUUGGUGCGCGAGUGUUGGAUAAUUGAUACCAGUGUAGAAGAGCGCCCUUGGCAGCGAAUCCUAACAUGAGGAUCACCCAUGU [5.W]: 40.3

Quick one: apparent KD of MS2 coat protein of ACAUCCAGGUUAAUCGUGGACAUGGUCGAUACCAGUAUUUUAAUCUACCCUUGGCAGCGACAUGAGGAUCACCCAUGUGCGAUGA [XTheo A #14] ?
14.9

Quick one: apparent KD of MS2 coat protein of GCACCAGGUACGGAUACCAGACGUUGCCAAACAGGGUGACAUGAGGAUCACCCAUGUACUGUCCCUUGGCAGCCGUACCUGGUGC [EThB NP+V+V2 #4 +-Same Structure] ?
22.6

Quick one: apparent KD of MS2 coat protein of ACAUGAGGGAUGGAUACCAGCGACAUGAGGAUCACCCAUGUAUGAGGAUCAGCCAUGUUAUGCCCUUGGCAGCCACGAACAUCAG [EDEMULLIN] ?
29.8

Quick one: apparent KD of MS2 coat protein of "UGUAUGUGAUCUGAUACCAGUCCAACUGGUAAAGCGUGAGGAUCACCCAUGCAAAAUUGGGACCCUUGGCAGCAGAUCGCAUACU" ?
185

Quick one: apparent KD of MS2 coat protein of AGACAUGUAAGAUAAAUGACUUAUACAGAUACCAGACUGUCUAAUGUCCCUUGGCAGCUGCAUAACAUGAGGAUCACCCAUGUAA [JR_ExcTheophyA_Sub010] ?
26.9

Quick one: apparent KD of MS2 coat protein of CAAGCACCAACCGAUACCAGCUUAGUAGUAUGCUCAUUAAACAUGAGGAUCACCCAUGUGAGCCCUUGGCAGCGGAUUUCCCUGC [theeternabot_exclusion_MS2_Theo_B_12] ?
13.5

Quick one: apparent KD of MS2 coat protein of ACAUUUAACUGAAGGAGCGUGAUAAACAUGAGGAUCACCCAUGUACCACAGAUUUUCAGAUCACAGGUAGGUCGCAGACUAAUGA [JR_ExcArginiB_Sub014] ?
11.5
